# EXPERIMENT_NOTES: Lipophilicity, logP of compound by shake flask method
# Format: physicochemical
# CONDITION_INFO: octanol/water
Please respond with reported logP for every item in the list.
The response must contain the number and no unit.

Which logP reading was recorded for the molecule `OC[C@H]1NC[C@H](O)[C@@H](O)[C@@H]1O` ?
-0.68

And `COc1ccc(-c2oc3cc(OC)cc(OC)c3c(=O)c2OCCCCCCCCCCCN2C[C@H](O)[C@@H](O)[C@H](O)[C@H]2CO)cc1` ?
2.92

And `COc1ccc(-c2oc3cc(OC)cc(OC)c3c(=O)c2OCCCCCCCCN2C[C@H](O)[C@@H](O)[C@H](O)[C@H]2CO)cc1` ?
1.65

And `COc1ccc(-c2oc3cc(OC)cc(OC)c3c(=O)c2OCCCCCN2C[C@H](O)[C@@H](O)[C@H](O)[C@H]2CO)cc1` ?
0.49
